What GI50 was measured for each of the following?
Tested on: KM12
Experiment: NCI tumour cell line growth inhibition, 48 h
Calls of active or inactive are those of the source. Cut-off read from the data, not from the text of the source: active = GI50 up to about 1.1 µM and inactive = higher.

Prompt line: Suppose we examine the compound "NC(=O)C(=O)CC(=O)c1ccccc1NC1=CC(=O)C(=O)c2ccccc21" ; what GI50 value has been reported?
Response line: 54.3 µM (inactive)

Prompt line: Suppose we examine the compound "COn1oc(=O)c2ccccc21" ; what GI50 value has been reported?
Response line: > 100 µM (inactive)

Prompt line: Suppose we examine the compound O=[N+]([O-])c1ccc(Cl)c(C2CC(c3cccc4ccccc34)=Nc3ccccc3[S+]2[O-])c1 (stereo not drawn) ; what GI50 value has been reported?
Response line: 18.9 µM (inactive)

* * *

System: SNB-75
Assay: NCI tumour cell line growth inhibition, 48 h
Calls of active or inactive are those of the source. Cut-off read from the data, not from the text of the source: active = GI50 up to about 1.1 µM and inactive = higher.
Hi there, use one of these labels in your reply, thanks! 1 (yes) (active), 0 (no) (inactive)

Prompt line: Hi, do you know how "COCN(C)c1nc(N(C)C)nc(N(C)C)n1" came out in this test?
Response line: 0 (no)

Prompt line: Hi, do you know how "O=C(O)c1nc(-c2ccccn2)c(-c2ccccn2)nc1C(=O)O" came out in this test?
Response line: 0 (no)

Prompt line: Hi, do you know how "CCOC(=O)c1sc2nc(SC)nc3c2c1N=CN3c1ccccc1Cl" came out in this test?
Response line: 0 (no)

Prompt line: Hi, do you know how "COc1cc(/C=C\c2ccc(SC)cc2)cc(OC)c1OC" came out in this test?
Response line: 1 (yes)

* * *

Let's go through some recorded GI50 values for HCT-15 together.
Express the result in µM but write the number alone.

Prompt line: Suppose we examine the molecule "CN1CCN(C)C12C=c1ccccc1=CC21CC1" ; what GI50 value has been reported?
Response line: 32.8

Prompt line: Suppose we examine the molecule "O=CN1CCN(C(=O)c2cc(Cl)cc(Cl)c2)C1=S" ; what GI50 value has been reported?
Response line: 17

Prompt line: Suppose we examine the molecule "CCCCNC(=S)N/N=C/c1cccc(C)n1" ; what GI50 value has been reported?
Response line: 47.6

Prompt line: Suppose we examine the molecule "O=[N+]([O-])c1cc(-[n+]2cc([O-])on2)ccc1Cl" ; what GI50 value has been reported?
Response line: 20.7

* * *

What GI50 was measured for each of the following?
Tested on: SF-539
Assay: NCI tumour cell line growth inhibition, 48 h
Calls of active or inactive are those of the source. Rule as the data show it: active = GI50 up to about 1.1 µM and inactive = higher.

Prompt line: Suppose we examine the molecule "CC(C)C1=Cc2ccc3c(c2C(=O)C1=O)CCCC3" ; what GI50 value has been reported?
Response line: 8.07 µM (inactive)

Prompt line: Suppose we examine the molecule "C[C@H]1[C@H](C)CC[C@]2(C)CC[C@]3(C)C(=C[C@@H](O)[C@@H]4[C@@]5(C)[C@H](O)[C@@H](O)[C@H](O)C(C)(C)[C@@H]5CC[C@]43C)[C@H]12" ; what GI50 value has been reported?
Response line: > 100 µM (inactive)

Prompt line: Suppose we examine the molecule "O=C1Nc2ccc(Br)cc2/C1=N/c1ccc(Cl)cc1" ; what GI50 value has been reported?
Response line: 3.58 µM (inactive)

Prompt line: Suppose we examine the molecule O=C(O)C1C2CC3C(OC(=O)C31)C2Br (stereo unspecified) ; what GI50 value has been reported?
Response line: > 100 µM (inactive)

Prompt line: Suppose we examine the molecule "CC1(C)O[C@@H](CP(c2ccccc2)c2ccccc2)[C@H](CP(c2ccccc2)c2ccccc2)O1" ; what GI50 value has been reported?
Response line: 7 µM (inactive)

Prompt line: Suppose we examine the molecule "COC(=O)c1c([N+](=O)[O-])ncn1[C@H]1OC[C@@H](OC(C)=O)[C@@H](OC(C)=O)[C@@H]1OC(C)=O" ; what GI50 value has been reported?
Response line: > 100 µM (inactive)

Prompt line: Suppose we examine the molecule "COc1ccc(/C=C2/CCCC/C2=N/O)cc1" ; what GI50 value has been reported?
Response line: > 100 µM (inactive)

Prompt line: Suppose we examine the molecule "O=C1OC(c2ccccc2)=N/C1=C/C=C/c1ccco1" ; what GI50 value has been reported?
Response line: > 100 µM (inactive)

Prompt line: Suppose we examine the molecule "O=C(O)CN(CC(=O)O)Cc1cc(C#Cc2ccc(C#Cc3ccccc3)cc2)cc(CN(CC(=O)O)CC(=O)O)n1" ; what GI50 value has been reported?
Response line: 20.7 µM (inactive)

Prompt line: Suppose we examine the molecule "O=c1c(Cl)cc2nc3ccccc3sc-2c1Cl" ; what GI50 value has been reported?
Response line: 16.7 µM (inactive)

Prompt line: Suppose we examine the molecule CC1(C)CC2=C(Sc3ccccc3N2)C(=O)C1C(=O)C(=O)Nc1cc(Cl)ccc1Cl (stereo unspecified) ; what GI50 value has been reported?
Response line: > 100 µM (inactive)
